biological target: human LTBR on cells (human, UniProt P36941 31-435); assay: cell-based or functional assay
test-readout: NFκB luc, 15000 ng/ml, w/o x linker (RLU)
# number only, unit RLU dropped from output

Identify measured NFκB luc, 15000 ng/ml, w/o x linker corresponding to P1AE1873 (CBE11) (antibody, human IgG1, kappa, L234A L235A, V domains shown) VH: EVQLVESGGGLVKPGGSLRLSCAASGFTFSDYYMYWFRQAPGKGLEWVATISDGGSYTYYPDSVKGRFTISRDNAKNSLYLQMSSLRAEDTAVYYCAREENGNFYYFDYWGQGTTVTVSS VL: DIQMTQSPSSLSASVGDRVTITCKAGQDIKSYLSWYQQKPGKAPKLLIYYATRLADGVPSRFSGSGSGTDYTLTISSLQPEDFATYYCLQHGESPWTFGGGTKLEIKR
25900

Identify measured NFκB luc, 15000 ng/ml, w/o x linker corresponding to P1AF0080 (antibody, human IgG1, kappa, L234A L235A, V domains shown, human IgG1 PG LALA; from transgenic rabbit immunization; also called LTBR (0080)) VH: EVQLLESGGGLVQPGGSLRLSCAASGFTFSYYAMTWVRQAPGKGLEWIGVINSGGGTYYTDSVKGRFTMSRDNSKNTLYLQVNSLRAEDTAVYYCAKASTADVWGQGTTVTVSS VL: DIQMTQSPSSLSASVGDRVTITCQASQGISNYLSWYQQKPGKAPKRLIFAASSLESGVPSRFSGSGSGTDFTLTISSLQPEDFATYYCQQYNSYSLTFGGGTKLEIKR
17800

Identify measured NFκB luc, 15000 ng/ml, w/o x linker corresponding to P1AE9452 (antibody, human IgG1, kappa, L234A L235A, V domains shown, human IgG1 PG LALA; from transgenic rabbit immunization; also called LTBR (9452)) VH: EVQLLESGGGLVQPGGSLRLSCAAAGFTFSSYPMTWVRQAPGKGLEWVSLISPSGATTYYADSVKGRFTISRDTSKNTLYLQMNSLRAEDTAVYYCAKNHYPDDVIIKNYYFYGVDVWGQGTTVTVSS VL: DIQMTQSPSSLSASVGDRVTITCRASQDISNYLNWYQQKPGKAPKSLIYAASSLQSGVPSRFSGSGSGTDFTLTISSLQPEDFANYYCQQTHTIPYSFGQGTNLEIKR
17500

Identify measured NFκB luc, 15000 ng/ml, w/o x linker corresponding to P1AE9459 (antibody, human IgG1, kappa, L234A L235A, V domains shown, human IgG1 PG LALA; from transgenic rabbit immunization) VH: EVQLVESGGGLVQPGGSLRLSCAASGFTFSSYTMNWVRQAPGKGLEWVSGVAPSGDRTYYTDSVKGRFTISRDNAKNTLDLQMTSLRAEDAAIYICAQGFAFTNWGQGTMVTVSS VL: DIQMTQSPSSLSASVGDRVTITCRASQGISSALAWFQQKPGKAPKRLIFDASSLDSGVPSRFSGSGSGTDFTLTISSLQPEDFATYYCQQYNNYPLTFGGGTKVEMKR
27700

Values were extracted from patent US20250034269A1.
